system: Pan-species-specific antigen Plasmodium Lactate DeHydrogenase (Pan-PLDH) protein
method: indirect ELISA at four coating concentrations, KD calculated from half-maximal OD
readout.name: Kd (nM)
Expressed in nM, but write only the number.

Here are 3 binders together with their reported answers.
WT 1-2 (antibody, mouse IgG2b, kappa, V domains shown) VH: QVQLQQPGAELVRPGASVKLSCKASGYSFTNYFMNWVKQRPGQGLEWIGMINPSDSETRVNQKFKDKATLTVDKSSSTAYMQLSSLTAEDSAVYYCARSGDFYTTYWDYWGQGTTLTVSS VL: DIQLTQSPASLSASVGETVTITCRGTGNVHNYIAWYQQKQGKSPQLLVYNAKTIADGVPSRFSGSGSGTQYSLKINSLQPEDFGSYYCQYFWSSYTFGGGTKLEIKR : 0.639
Mutation 1-54 (antibody, mouse IgG2b, kappa, V domains shown) VH: QVQLQQPGAELVRPGASVKLSCKASGTSFTNYWMNWVKQRPGQGLEWIGMIHPSDSETRINQKFKDKATLTVDKSSSTAYMQLSSLTAEDSAVYYCARSGDFYTYYFDYWGQGTTLTVSS VL: DIQLTQSPASLSASVGETVTITCRGTGNIHNYLAWYQQKQGKSPQLLVYNAKTVADGVPSRFSGSGSGTQYSLKINSLQPEDFGSYYCQSFWSTYTFGGGTKLEIKR : 0.633
Mutation 1-40 (antibody, mouse IgG2b, kappa, V domains shown) VH: QVQLQQPGAELVRPGASVKLSCKASGTSFTNYWMNWVKQRPGQGLEWIGMIHPSESETRLNQKFKDKATLTVDKSSSTAYMQLSSLTAEDSAVYYCAKSGEFYTYYFDYWGQGTTLTVSS VL: DIQLTQSPASLSASVGETVTITCRGSGNIHNYLAWYQQKQGKSPQLLVYNARTIADGVPSRFSGSGSGTQYSLKINSLQPEDFGSYYCQTFWSTYTFGGGTKLEIKR : 0.439

Requested read-out: Kd. Entry: Mutation 1-43 (antibody, mouse IgG2b, kappa, V domains shown) VH: QVQLQQPGAELVRPGASVKLSCKASGTSFTNYWMNWVKQRPGQGLEWIGMIHPSDSETRLNQKFKDKATLTVDKSSSTAYMQLSSLTAEDSAVYYCARSGDFYTYYFDYWGQGTTLTVSS VL: DIQLTQSPASLSASVGETVTITCRGSGNIHNYLAWYQQKQGKSPQLLVYNAKTVADGVPSRFSGSGSGTQYSLKINSLQPEDFGSYYCQSFWSTYTFGGGTKLEIKR
0.53

Requested read-out: Kd. Entry: Mutation 1-28 (antibody, mouse IgG2b, kappa, V domains shown) VH: QVQLQQPGAELVRPGASVKLSCKASGTSFTNYWMNWVKQRPGQGLEWIGMIHPSESETRLNQKFKDKATLTVDKSSSTAYMQLSSLTAEDSAVYYCAKSGEFYTYYFDYWGQGTTLTVSS VL: DIQLTQSPASLSASVGETVTITCRGSGNIHNYLAWYQQKQGKSPQLLVYNARTIADGVPSRFSGSGSGTQYSLKINSLQPEDFGSYYCQYFWSTYTFGGGTKLEIKR
0.759
